Field: protein stability index. Provide a value for each of the variants that follow.
B1: ZNF649 (parent)
chain: LVAHQRYHTGKTPFVCPECGQPCS

Variants of: B1
Experiment: protein stability index of a GFP-peptide fusion (GPS, HEK-293T) (PSI 1-6); higher = more stable;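 also: lentivirally expressed fusions sorted by FACS into six bins by GFP to DsRed ratio, PSI derived from sequencing read proportions per bin multiplied by bin number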
Condition: c terminus: a fixed tail appended
Answers are plain numbers.

LVAHQRYHTGKTPFVCPECGQPES    3.09
LVAHQRYHTGKTPFVCNECGQPCS    3.48

Please report protein stability index for every entry that follows.
1. LKAHQRYHTGKTPFVCPECGQPCS
2. LVIHQRYHTGKTPFVCPECGQPCS
3. LVAHQRYHTGKTPFICPECGQPCS

Resp:
1. 2.91
2. 3.32
3. 2.74

# batch: return protein stability index for each of the 2 variants below
1. LVAHQRYHTGKTPFVCPECGRPCS
2. LVAHQRYHTGKTPFVCPECSQPCS

Resp:
2.62
3.13

Value of measured protein stability index for the entry LVAHQRYHTGKTPFVCPHCGQPCS : 2.38
